B1: KLHDC10 (parent)
chain: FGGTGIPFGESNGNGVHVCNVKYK

- Variants of: B1
- PROTOCOL_SUMMARY: protein stability index of a GFP-peptide fusion (GPS, HEK-293T) (PSI 1-6); higher = more stable;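 also: lentivirally expressed fusions sorted by FACS into six bins by GFP to DsRed ratio, PSI derived from sequencing read proportions per bin multiplied by bin number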
- ASSAY_CONDITIONS: c terminus: a fixed tail appended
The reader will find reported protein stability index values listed item by item below.
Respond with the number and no other words.

Consider the following illustrative entries.
>>> measured_result("I6G")
1.96
>>> measured_result("G3Y")
1.95
>>> measured_result("N14P")
1.91
>>> measured_result("V21P")
1.92
>>> measured_result("N20V")
1.55
>>> measured_result("Y23Q")
2.28
>>> measured_result("G13L")
2.05
>>> measured_result("G9K")
1.79

Would you mind telling me what protein stability index value was observed for K24A ?
1.23

Report protein stability index for E10P please.
1.95

Item K22C has what recorded protein stability index?
1.24

Give its protein stability index value. Item: V16L
1.39

Which measured protein stability index value corresponds to N12D ?
2.33

Give its protein stability index value. Item: G15H
1.9

Query: protein stability index; subject: K22T
1.98

What protein stability index value was documented for this variant, G13W ?
2.03

# protein stability index lookup, item E10I
2.39

Tell me the measured protein stability index of S11R , please.
1.97

What measured protein stability index goes with F8D ?
4.16

What value of measured protein stability index is listed for V21F ?
1.82

# query: protein stability index of entry G5K
1.52

Which protein stability index reading was recorded for the variant K24C ?
1.75

Endpoint output: protein stability index of H17S . Value?
3.15

What value of protein stability index has been reported for the following variant? F1C
3.03

Which protein stability index value is on record for G9W ?
2.89

Field request: protein stability index | item: N14G
1.54

What does the data say about its protein stability index? Entry: K22F
1.63

Which protein stability index is listed for F8A ?
3.78
